# Assay remarks: Phase I plasma pharmacokinetics
# Type: in vivo, human
# Test parameters: human, plasma, iv, 2.75 mg/kg, Cohort 4: 2.75 mg/kg; N = 6; 90-min IV infusion; Cycle 1 Day 8; plasma LC-MS; read-out: Time to peak plasma concentration, Mean (SD)
Ends that are not written are not given here.
Measure: Tmax
Answer with the figure and its unit, nothing else.

Input: For the sequence KEFLHPSKVDLPR [SOR-C13] , what Tmax is on record?
Output: 21.6 min

====

# Assay remarks: Phase I plasma pharmacokinetics
# Assay type: in vivo, human
# Test parameters: human, plasma, iv, 1.375 mg/kg, Cohort 3: 1.375 mg/kg; N = 3; 90-min IV infusion; Cycle 1 Day 8; plasma LC-MS; read-out: AUCtau, Mean (SD)
Ends that are not written are not given here.
Measure: AUC(0-t) (ng·h/mL)
Give bare numbers, in ng·h/mL.

Input: For the sequence KEFLHPSKVDLPR [SOR-C13] , what AUC(0-t) is on record?
Output: 220
